Recorded GABA shift values for a group of molecules are listed next.
Target: GABA-A receptor; anion channel (Rattus norvegicus) (UniProt O09028+P15431+P18506+P18508+P19969+P20236+P23574+P23576+P28471+P28473+P30191+P62813+P63079+P63138+Q91ZM7+Q9ES14)
Assay: Ratio of the binding in the absence and presence of GABA was determined.
Format: protein-complex assay
Lab note: record just the number, no unit beside it.

Below: 5 molecules and their reported GABA shift.
QUERY: Data request, read-out GABA shift, for CCOCN1C2=C(C(=O)Nc3sccc3Cl)C(=O)CCN2c2ccc(F)cc21
RESULT: 1.6

QUERY: Data request, read-out GABA shift, for CCOCN1C2=C(C(=O)Nc3ccccc3F)C(=O)CCN2c2ccc(F)cc21
RESULT: 1.2

QUERY: Data request, read-out GABA shift, for N=C(N)NCCN1C2=C(C(=O)Nc3ccccc3F)C(=O)CCN2c2ccc(F)cc21
RESULT: 1.7

QUERY: Data request, read-out GABA shift, for CCOCN1C2=C(C(=O)Nc3ccc(F)cc3F)C(=O)CCN2c2ccc(F)cc21
RESULT: 2

QUERY: Data request, read-out GABA shift, for CCOCCN1C2=C(C(=O)Nc3ccccc3F)C(=O)CCN2c2ccc(F)cc21
RESULT: 3.2

Now for another entry.
QUERY: Data request, read-out GABA shift, for CCOCN1C2=C(C(=O)Nc3cccs3)C(=O)CCN2c2ccc(F)cc21
RESULT: 2.1

====

Recorded IC50 values for a group of compounds are listed next.
Target: GABA-A receptor; anion channel
Test: In vitro affinity for BZD site on GABA-A receptor from rat cerebral cortex using radioligand [3H]flunitrazepam

QUERY: Data request, read-out IC50, for CCOCN1C2=C(C(=O)Nc3ccccc3F)C(=O)CCN2c2ccccc21
RESULT: 151 nM

---
QUERY: Data request, read-out IC50, for CCOCN1C2=C(C(=O)Nc3ccc(O)cc3F)C(=O)CCN2c2ccc(F)cc21
RESULT: 1.4 nM

QUERY: Data request, read-out IC50, for CCOCN1C2=C(C(=O)Nc3ccccc3F)C(=O)CCN2c2ccc(F)c(F)c21
RESULT: 0.5 nM

QUERY: Data request, read-out IC50, for CCOCCN1C2=C(C(=O)Nc3ccccc3F)C(=O)CCN2c2ccc(F)cc21
RESULT: 0.5 nM

QUERY: Data request, read-out IC50, for O=C1CCN2C(=C1C(=O)Nc1ccccc1F)N(CCN1CCOCC1)c1cc(F)ccc12
RESULT: 6.1 nM

====

Organism: Rattus norvegicus
Assay: Minimum effective dose required for anticonflict in rat perorally
Format: functional
Settings: po, read-out: MED
Value type: minimal effective dose (mg/kg)
Write down the numeric answer in mg/kg and omit the unit.

QUERY: Data request, read-out minimal effective dose, for COC(=O)OCCN1C2=C(C(=O)Nc3ccccc3F)C(=O)CCN2c2ccc(F)cc21
RESULT: 3

QUERY: Data request, read-out minimal effective dose, for CCOCN1C2=C(C(=O)Nc3ccc(C)s3)C(=O)CCN2c2ccc(F)cc21
RESULT: 0.3

QUERY: Data request, read-out minimal effective dose, for O=C1CCN2C(=C1C(=O)Nc1ccccc1F)N(CCCO)c1cc(F)ccc12
RESULT: 10

QUERY: Data request, read-out minimal effective dose, for CCOCCN1C2=C(C(=O)Nc3ccccc3F)C(=O)CCN2c2ccc(F)cc21
RESULT: 1

QUERY: Data request, read-out minimal effective dose, for O=C1CCN2C(=C1C(=O)Nc1ccccc1F)N(CC1CCCO1)c1cc(F)ccc12 (configuration not stated)
RESULT: 3

QUERY: Data request, read-out minimal effective dose, for CCOCN1C2=C(C(=O)Nc3ccc(F)cc3F)C(=O)CCN2c2ccc(F)cc21
RESULT: 0.1

QUERY: Data request, read-out minimal effective dose, for CCOCN1C2=C(C(=O)Nc3ccccc3F)C(=O)CCN2c2ccc(F)cc21
RESULT: 0.4

QUERY: Data request, read-out minimal effective dose, for CCOCN1C2=C(C(=O)Nc3ccsc3)C(=O)CCN2c2ccc(F)cc21
RESULT: 0.3

QUERY: Data request, read-out minimal effective dose, for CCOCN1C2=C(C(=O)Nc3ccc(OC)cc3F)C(=O)CCN2c2ccc(F)cc21
RESULT: 0.03
